Reference source: patent US20140005163A1

# testedOn: PI3K alpha (Homo sapiens)
# Construct: p85(iSH2) fusion partner (see partner chain) (N); His tag (C); Tn5 (Trichoplusia ni) or TiniPro insect cells
# assayExplanation: PI3K alpha kinase assay (Kinase-Glo luminescence)
pIC50: −log10 of the molar value.
assayReadout: pIC50

Illustrative cases are given below, each with its answer.
CCNc1ncc(-c2ccc3ncc4c(c3c2)n(-c2cn(C)nc2C)c(=O)n4C)cc1COC [Example 206.1]: 7.59
CCn1cc(-n2c(=O)n(C)c3cnc4ccc(-c5cnc(F)c(NC)c5)cc4c32)c(C)n1 [Example 150.1]: 8.15
CC(=O)Nc1cc(-c2ccc3ncc4c(c3c2)n(-c2cn(C)nc2C)c(=O)n4C)cnc1Cl [Example 222]: 7.37

a = COCCOc1ccc(-c2ccc3ncc4c(c3c2)n(-c2cn(C)nc2C)c(=O)n4C)cc1OC [Example 30.1]
b = Cc1nn(C)cc1-n1c(=O)n(C)c2cnc3ccc(-c4cnc(N)nc4)cc3c21 [Example 81.1]
Hey, which is lower on measured pIC50, a or b ? Use the label to indicate which entry you chose.
b

1 = Cc1ccc(-c2ccc3ncc4c(c3c2)n(-c2cn(C)nc2C)c(=O)n4C)cn1 [Example 7.2]
2 = Cc1nn(C)cc1-n1c(=O)n(C)c2cnc3ccc(-c4cncc(N(C)C)c4)cc3c21 [Example 178]
3 = Cc1nn(C)cc1-n1c(=O)n(C)c2cnc3ccc(-c4cccc(O)c4)cc3c21 [Example 32.1]
4 = Cc1nn(C)cc1-n1c(=O)n(C)c2cnc3ccc(-c4ccc(N5CCC5)nc4)cc3c21 [Example 5.1]
Rank items: key pIC50, increasing. Please list each label once, in the requested order.
2, 4, 1, 3

I = [2H]C([2H])([2H])OCc1ncc(-c2ccc3ncc4c(c3c2)n(-c2cn(C)nc2C)c(=O)n4C)cc1OCC [Example 198]
II = CNC(=O)c1ccc(-c2ccc3ncc4c(c3c2)n(-c2cn(C)nc2C)c(=O)n4C)cc1 [Example 43.1]
III = CCCOc1ccc(-c2ccc3ncc4c(c3c2)n(-c2cn(C)nc2C)c(=O)n4C)cn1 [Example 55]
IV = CCn1cc(-n2c(=O)n(C)c3cnc4ccc(-c5cnc(NC)c(Cl)c5)cc4c32)c(C)n1 [Example 146.2]
Reorder: pIC50, max to min. Please list each label once, in the requested order.
II, I, III, IV
(II: 8.00, I: 7.77, III: 7.25, IV: 6.92)

----------
# Tested on: PKB Ser473 phosphorylation in Rat1-myr-HA-p110 alpha cells
# assayExplanation: Reverse protein array assay, PKB Ser473 phosphorylation in Rat1-myr-p110 alpha cells
# Type: cell-based
# conditionNotes: 0.5 h, pAkt Ser473, 30 minutes compound incubation, read-out: p-PKB IC50
pIC50: −log10 of the molar value.
assayReadout: pIC50

CCNc1cc(-c2ccc3ncc4c(c3c2)n(-c2c(C)nn(CCOC)c2C)c(=O)n4C)cnc1C: 7.48

A = CNc1cc(-c2ccc3ncc4c(c3c2)n(-c2cn(C)nc2C)c(=O)n4C)cnc1F
B = CCc1ncc(-c2ccc3ncc4c(c3c2)n(-c2cn(C)nc2C)c(=O)n4C)cc1N
Hey, which is lower on measured pIC50, A or B ? Use the label to indicate which entry you chose.
B
(B: 7.70, A: 8.15)

----------
pIC50: −log10 of the molar value.
These compounds were tested on mTOR (Homo sapiens, UniProt P42345); pIC50 is the recorded read-out.
Sequence (P42345 1360-2549 limits assumed): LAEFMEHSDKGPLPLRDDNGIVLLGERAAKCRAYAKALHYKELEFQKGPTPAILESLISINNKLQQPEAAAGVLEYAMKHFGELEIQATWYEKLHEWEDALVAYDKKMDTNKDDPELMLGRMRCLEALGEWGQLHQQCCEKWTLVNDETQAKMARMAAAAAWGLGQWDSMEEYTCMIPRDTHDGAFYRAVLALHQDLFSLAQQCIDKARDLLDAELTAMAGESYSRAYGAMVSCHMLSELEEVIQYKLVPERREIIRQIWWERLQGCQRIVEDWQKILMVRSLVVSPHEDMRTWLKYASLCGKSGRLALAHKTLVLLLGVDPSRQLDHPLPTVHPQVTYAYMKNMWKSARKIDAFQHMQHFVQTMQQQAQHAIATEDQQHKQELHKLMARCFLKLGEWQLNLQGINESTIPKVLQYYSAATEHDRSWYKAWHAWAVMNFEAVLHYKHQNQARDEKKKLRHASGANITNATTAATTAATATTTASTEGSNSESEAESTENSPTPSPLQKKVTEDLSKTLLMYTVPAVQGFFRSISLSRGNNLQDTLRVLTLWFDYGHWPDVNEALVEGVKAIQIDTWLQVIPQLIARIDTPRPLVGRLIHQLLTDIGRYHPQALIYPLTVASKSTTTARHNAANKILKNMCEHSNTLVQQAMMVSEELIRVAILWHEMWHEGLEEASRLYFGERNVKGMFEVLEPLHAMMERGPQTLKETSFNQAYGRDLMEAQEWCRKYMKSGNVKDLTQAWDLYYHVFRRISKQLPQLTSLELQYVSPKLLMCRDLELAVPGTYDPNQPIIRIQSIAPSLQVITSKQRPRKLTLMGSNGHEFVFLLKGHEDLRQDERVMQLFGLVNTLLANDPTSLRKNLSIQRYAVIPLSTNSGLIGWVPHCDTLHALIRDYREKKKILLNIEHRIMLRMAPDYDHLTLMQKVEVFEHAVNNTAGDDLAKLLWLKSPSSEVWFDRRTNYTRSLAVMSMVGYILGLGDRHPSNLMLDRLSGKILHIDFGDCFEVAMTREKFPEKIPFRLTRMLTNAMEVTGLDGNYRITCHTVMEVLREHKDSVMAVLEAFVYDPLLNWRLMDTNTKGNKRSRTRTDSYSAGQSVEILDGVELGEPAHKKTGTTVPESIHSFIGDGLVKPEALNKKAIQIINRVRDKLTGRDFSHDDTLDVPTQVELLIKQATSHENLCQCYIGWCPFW
assayReadout: pIC50

P = CO[C@H]1CCN(c2ccc(-c3ccc4ncc5c(c4c3)n(-c3cn(C)nc3C)c(=O)n5C)cn2)C1 [Example 213.2]
Q = Cc1nn(C(C)C)cc1-n1c(=O)n(C)c2cnc3ccc(-c4ccc(N)nc4)cc3c21 [Example 23.2]
R = CNC(=O)c1ccc(-c2ccc3ncc4c(c3c2)n(-c2cn(C)nc2C)c(=O)n4C)cn1 [Example 15.1]
Sort the list above on pIC50 in ascending fashion. Please list each label once, in the requested order.
P, R, Q

----------
# testedOn: PI3K alpha (Homo sapiens, UniProt P42336)
# Construct: p85(iSH2) fusion partner (see partner chain) (N); His tag (C); Tn5 (Trichoplusia ni) or TiniPro insect cells
# Sequence (P42336 with tags, fused parts or gaps limits assumed): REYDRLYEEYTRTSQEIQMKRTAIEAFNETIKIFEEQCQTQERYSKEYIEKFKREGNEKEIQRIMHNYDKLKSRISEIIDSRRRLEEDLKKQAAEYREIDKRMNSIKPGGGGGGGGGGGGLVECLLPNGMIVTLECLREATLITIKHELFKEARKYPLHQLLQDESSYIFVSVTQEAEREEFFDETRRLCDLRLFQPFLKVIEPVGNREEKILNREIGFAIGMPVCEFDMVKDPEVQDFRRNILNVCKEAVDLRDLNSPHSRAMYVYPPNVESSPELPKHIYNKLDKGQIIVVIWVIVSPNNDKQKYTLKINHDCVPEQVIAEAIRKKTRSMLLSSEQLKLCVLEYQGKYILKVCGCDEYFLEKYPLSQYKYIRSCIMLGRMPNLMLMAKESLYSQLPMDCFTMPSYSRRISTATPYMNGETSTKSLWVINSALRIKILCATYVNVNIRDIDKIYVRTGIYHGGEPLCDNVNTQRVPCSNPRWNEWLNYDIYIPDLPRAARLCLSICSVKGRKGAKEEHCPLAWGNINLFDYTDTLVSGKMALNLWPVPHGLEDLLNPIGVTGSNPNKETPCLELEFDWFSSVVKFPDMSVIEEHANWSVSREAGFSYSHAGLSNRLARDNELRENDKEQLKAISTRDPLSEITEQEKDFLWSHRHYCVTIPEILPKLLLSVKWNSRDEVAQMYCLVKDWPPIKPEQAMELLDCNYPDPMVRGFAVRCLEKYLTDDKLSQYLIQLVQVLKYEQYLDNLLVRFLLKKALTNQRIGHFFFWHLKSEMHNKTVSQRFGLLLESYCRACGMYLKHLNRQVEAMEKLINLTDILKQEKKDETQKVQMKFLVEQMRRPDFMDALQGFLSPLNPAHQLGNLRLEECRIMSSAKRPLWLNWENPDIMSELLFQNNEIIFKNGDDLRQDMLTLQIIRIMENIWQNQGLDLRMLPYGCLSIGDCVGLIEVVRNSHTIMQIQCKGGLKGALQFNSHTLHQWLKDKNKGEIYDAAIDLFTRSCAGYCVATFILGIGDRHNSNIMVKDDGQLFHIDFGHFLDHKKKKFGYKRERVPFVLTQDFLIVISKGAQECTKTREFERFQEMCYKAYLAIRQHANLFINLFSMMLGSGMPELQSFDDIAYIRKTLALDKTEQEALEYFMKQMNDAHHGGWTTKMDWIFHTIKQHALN
# assayExplanation: PI3K alpha kinase assay (Kinase-Glo luminescence)
pIC50: −log10 of the molar value.
assayReadout: pIC50

COCCOc1cc(-c2ccc3ncc4c(c3c2)n(-c2cn(C)nc2C)c(=O)n4C)cnc1CO: 7.52
Cc1nn(C)cc1-n1c(=O)n(C)c2cnc3ccc(-c4cncc(CN)c4)cc3c21: 7.00
CCNc1cncc(-c2ccc3ncc4c(c3c2)n(-c2cn(C)nc2C)c(=O)n4C)c1: 7.85
Cn1nccc1-n1c(=O)n(C)c2cnc3ccc(-c4ccc(C(F)(F)F)nc4)cc3c21: 6.68
Cc1nn(CC(=O)N2CCC2)cc1-n1c(=O)n(C)c2cnc3ccc(-c4cnc(N5CCCC5)nc4)cc3c21: 7.42
CCNc1cc(-c2ccc3ncc4c(c3c2)n(-c2cn(C)nc2C)c(=O)n4C)cnc1CC: 8.05
CNc1ncc(-c2ccc3ncc4c(c3c2)n(-c2c(C)nn(C)c2C)c(=O)n4C)cn1: 7.38
CNc1ncc(-c2ccc3ncc4c(c3c2)n(-c2cn(C(C)C)nc2C)c(=O)n4C)cc1C(F)(F)F: 8.10

1 = COc1ccc(-c2ccc3ncc4c(c3c2)n(-c2cc(C)nn2C)c(=O)n4C)cc1OC
2 = Cc1nn(CC(=O)N(C)C)cc1-n1c(=O)n(C)c2cnc3ccc(-c4ccccc4)cc3c21
3 = CCNc1cc(-c2ccc3ncc4c(c3c2)n(-c2c(C)nn(CCO)c2C)c(=O)n4C)cnc1C
Rank items: key pIC50, increasing. Please list each label once, in the requested order.
2, 1, 3

I = CCOc1ccc(-c2ccc3ncc4c(c3c2)n(-c2cn(CC)nc2C)c(=O)n4C)cn1
II = CNc1ncc(-c2ccc3ncc4c(c3c2)n(-c2cc(C)nn2C)c(=O)n4C)cc1Cl
Endpoint returns whichever of I and II has the numerically higher pIC50. Use the label to indicate which entry you chose.
II

a = Cc1nn(C)cc1-n1c(=O)n(C)c2cnc3ccc(-c4ccc(-n5cccn5)cc4)cc3c21
b = Cc1nn(C)c(C)c1-n1c(=O)n(C)c2cnc3ccc(-c4cnc(N)nc4)cc3c21
Hey, which is lower on measured pIC50, a or b ? Use the label to indicate which entry you chose.
b

----------
These compounds were tested on mTOR (Homo sapiens); IC50 is the recorded read-out.
assayReadout: IC50 (nM)

Illustrative cases are given below, each with its answer.
Cc1nn(C)cc1-n1c(=O)n(C)c2cnc3ccc(-c4ccc(N5CCN(C)CC5)nc4)cc3c21: 87
Cc1nn(C(C)C)cc1-n1c(=O)n(C)c2cnc3ccc(-c4cnc(N)c(C(F)(F)F)c4)cc3c21: 6
CNc1ncc(-c2ccc3ncc4c(c3c2)n(-c2cn(C(C)C)nc2C)c(=O)n4C)cc1F: 27
CCN(C)C(=O)Cn1cc(-n2c(=O)n(C)c3cnc4ccc(-c5cncc(OC(C)C)c5)cc4c32)c(C)n1: 23
CCOc1ccc(-c2ccc3ncc4c(c3c2)n(-c2cn(CCO)nc2C)c(=O)n4C)cn1: 22

1 = [2H]C([2H])([2H])Nc1ncc(-c2ccc3ncc4c(c3c2)n(-c2c(C)nn(C)c2C)c(=O)n4C)cc1C(F)(F)F
2 = CCOc1cc(-c2ccc3ncc4c(c3c2)n(-c2cn(CCO)nc2C)c(=O)n4C)cnc1C
Hey, which is lower on measured IC50, 1 or 2 ? Use the label to indicate which entry you chose.
2
(2: 11 nM, 1: 113 nM)

----------
# Test system: PKB Ser473 phosphorylation in Rat1-myr-HA-p110 alpha cells
# assayExplanation: Reverse protein array assay, PKB Ser473 phosphorylation in Rat1-myr-p110 alpha cells
# Format: cell-based
# conditionNotes: 0.5 h, pAkt Ser473, 30 minutes compound incubation, read-out: p-PKB IC50
pIC50: −log10 of the molar value.
assayReadout: pIC50

Illustrative cases are given below, each with its answer.
CCOc1ccc(-c2ccc3ncc4c(c3c2)n(-c2cn(CC(=O)N3CCOCC3)nc2C)c(=O)n4C)cn1: 7.23
Cc1nn(CC(=O)N2CCC2)cc1-n1c(=O)n(C)c2cnc3ccc(-c4cncc(OC(C)C)c4)cc3c21: 7.12
CNc1ncc(-c2ccc3ncc4c(c3c2)n(-c2c(C)noc2C)c(=O)n4C)cc1Cl: 6.76
Cc1nn(CC(=O)N(C)C)cc1-n1c(=O)n(C)c2cnc3ccc(-c4ccccc4)cc3c21: 7.40
Cc1nn(C)cc1-n1c(=O)n(C)c2cnc3ccc(-c4cnc(CO)c(OC(C)C)c4)cc3c21: 7.72

I = Cc1nn(C)c(C)c1-n1c(=O)n(C)c2cnc3ccc(-c4ccc(N(C)C)nc4)cc3c21
II = CCn1cc(-n2c(=O)n(C)c3cnc4ccc(-c5cnc(COC)c(OC(C)C)c5)cc4c32)c(C)n1
Hey, which is lower on measured pIC50, I or II ? Use the label to indicate which entry you chose.
I
(I: 7.17, II: 7.57)

A = CCN(C)c1cc(-c2ccc3ncc4c(c3c2)n(-c2cn(C)nc2C)c(=O)n4C)cnc1C
B = CNc1ncc(-c2ccc3ncc4c(c3c2)n(-c2c(C)nn(C)c2C)c(=O)n4C)cc1C(F)(F)F
Hey, which is lower on measured pIC50, A or B ? Use the label to indicate which entry you chose.
B
(B: 7.59, A: 8.22)

a = Cc1nn(C(C)C)cc1-n1c(=O)n(C)c2cnc3ccc(-c4ccc(N(C)C)nc4)cc3c21
b = CO[C@H]1CCN(c2ccc(-c3ccc4ncc5c(c4c3)n(-c3cn(C)nc3C)c(=O)n5C)cn2)C1
Endpoint returns whichever of a and b has the numerically higher pIC50. Use the label to indicate which entry you chose.
a

A = CCNc1cc(-c2ccc3ncc4c(c3c2)n(-c2cn(C)nc2C)c(=O)n4C)cnc1CO
B = CCOc1ccc(-c2ccc3ncc4c(c3c2)n(-c2cn(CC)nc2C)c(=O)n4C)cn1
Endpoint returns whichever of A and B has the numerically higher pIC50. Use the label to indicate which entry you chose.
A
(A: 7.89, B: 7.46)
